biological target: human A2A receptors (Homo sapiens (Human)); test: A2A antagonism in cAMP cell-based assay (LANCE cAMP, HEK293); settings: HEK293 cells expressing human A2A receptor
Sequence (P29274 whole entry): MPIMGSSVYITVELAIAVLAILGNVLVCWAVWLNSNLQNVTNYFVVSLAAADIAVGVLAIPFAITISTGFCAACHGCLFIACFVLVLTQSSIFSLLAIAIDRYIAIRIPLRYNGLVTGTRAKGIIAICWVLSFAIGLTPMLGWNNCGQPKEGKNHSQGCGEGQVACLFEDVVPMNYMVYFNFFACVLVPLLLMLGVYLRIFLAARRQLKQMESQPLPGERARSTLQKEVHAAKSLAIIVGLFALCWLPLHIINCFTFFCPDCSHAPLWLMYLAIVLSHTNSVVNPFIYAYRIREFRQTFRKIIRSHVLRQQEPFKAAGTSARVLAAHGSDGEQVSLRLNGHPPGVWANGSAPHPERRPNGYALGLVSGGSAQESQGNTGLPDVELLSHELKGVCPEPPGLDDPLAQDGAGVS
Form field: IC50 (one value per entry).
RECORDED METRIC: IC50 (nM)

INSERT INTO results (compound, recorded_metric, test_value) VALUES
  ('COc1cc2nc(N)n3nc(C4CC(C)CN(c5cnn(C(C)(C)CO)c5)C4)nc3c2cc1F (racemic) [Example 156]', 'IC50', 9.5),
  ('CC(O)C(C)n1cc(N2CCC[C@@H](c3nc4c5cc(F)cc(F)c5nc(N)n4n3)C2)cn1 (single isomer, unassigned) [Example 197]', 'IC50', 6.4),
  ('COc1cc2nc(N)n3nc([C@@H]4C[C@H](C)CN(c5cn([C@@H](C)[C@H](C)O)nc5C)C4)nc3c2cc1F (single isomer, unassigned) [Example 208]', 'IC50', 0.7);
